System: BT-549 breast
Test: NCI tumour cell line growth inhibition, 48 h
Measured TGI accompanies every entry in the list below.
OUTCOME_MEASURE: TGI

INSERT INTO assay_data (molecule, outcome_measure, reported_measurement) VALUES
  ('COc1cc(CCCl)c(CC2=NCCc3cc(OC)c(OC)cc32)cc1OC', 'TGI', '> 100 µM'),
  ('O=C1c2ccc3cc(CCl)cc(O)c3c2C(=O)c2cccc(O)c21', 'TGI', '> 10 µM'),
  ('COC(=O)C([C@H]1CC[C@H](OCc2ccccc2)[C@@]1(O)COCc1ccccc1)C(C)(O)CCc1ccccc1 (stereo partly drawn)', 'TGI', '30.8 µM'),
  ('Cc1n[nH]c(=O)n1-c1cccnc1', 'TGI', '> 100 µM'),
  ('CC(=O)Nc1ccc2c(C3=C(c4cn(C)c5ccccc45)C(=O)NC3=O)cn(C)c2c1', 'TGI', '> 25 µM'),
  ('COc1cc(C(C)c2ccc3c(ccn3C)c2)cc(OC)c1OC (stereo not drawn)', 'TGI', '19.3 µM'),
  ('O=C1OC(=O)C2=C1C(c1cccs1)C=C(c1cccnc1)N2c1ccncc1 (stereo not drawn)', 'TGI', '36.1 µM'),
  ('CC(C)(C)C(=O)CC1(O)C=C(O)C(O)(CC(=O)C(C)(C)C)O1 (stereo not drawn)', 'TGI', '> 100 µM');

###

Test system: SK-MEL-2 melanoma
Assay: NCI tumour cell line growth inhibition, 48 h; in the data active = GI50 below about 0.43 µM; inactive = the rest
Outcomes: active, inactive

INSERT INTO results (molecule, qualitative_label) VALUES
  ('Nc1c(C(=O)Nc2ccccn2)sc2nc3c(cc12)CCCCC3', 'inactive'),
  ('COc1ccc(CN2C(=O)C(Cl)=C(Nc3cccc(O)c3)C2=O)cc1', 'inactive'),
  ('COc1cc(NC(=O)c2ccc(C(F)(F)F)nc2Nc2ccc(Cl)cc2C)cc(OC)c1OC', 'inactive'),
  ('Oc1ccc(-c2cn3ccsc3n2)cc1O', 'inactive'),
  ('COc1cc(C(C)c2ccc3c(ccn3C)c2)cc(OC)c1OC (stereo unspecified)', 'active'),
  ('Fc1ccc(-c2nnc3sc(-c4cc(Cl)cc(Cl)c4)nn23)cc1Cl', 'inactive');

###

System: SNB-19 CNS
Test: NCI tumour cell line growth inhibition, 48 h
OUTCOME_MEASURE: GI50

INSERT INTO assay_data (molecule, reported_measurement) VALUES
  ('CC(C)=NNc1ncnc2c1ncn2C1OC(CO)C(O)C1O (stereo not given)', '1.43 µM'),
  ('Cn1c(-c2c(N)n(Cc3ccc(C(F)(F)F)cc3)c3nc(C#N)c(C#N)nc23)nc2ccccc21', '11.7 µM'),
  ('COc1cc2c(cc1OC)[Se]c1cc(OC)c(OC)cc1[Se]2', '> 100 µM'),
  ('Nc1c(C(=O)Nc2ccccn2)sc2nc3c(cc12)CCCCC3', '2.77 µM'),
  ('COc1cc(C(C)c2ccc3c(ccn3C)c2)cc(OC)c1OC (stereo not given)', '0.0405 µM'),
  ('O=C(NC1CCC(Br)CC1)C1CCCC(S(=O)(=O)NC2CCCCC2)C1 (stereo not given)', '11.1 µM'),
  ('Cc1cc(Nc2ncc(F)c(N[C@H]3[C@@H](C(N)=O)[C@@H]4C=C[C@H]3C4)n2)ccc1N1CCN(C)CC1', '0.725 µM'),
  ('Oc1ccc(CCl)c2cccnc12', '22.9 µM'),
  ('FC(F)(F)CNc1nccc(-c2cnn3ncccc23)n1', '12.7 µM'),
  ('CCC[CH2][Sn]([CH2]CCC)([O]C(=O)c1ccc(C)c(N)c1)[O]C(=O)c1ccc(C)c(N)c1', '1.2 µM'),
  ('COc1cc(OC)cc(C2C(C#N)=C(N)Oc3c2ccc2ccc(O)cc32)c1 (stereo not given)', '< 0.01 µM'),
  ('CCC(=C/[C@H](C)C/C=C/C(C)=C/[C@@H](C)C(=O)[C@@H](C)[C@H](O)[C@@H](C)CC)/C=C/[C@@H]1OC(=O)C=C[C@@H]1C', '< 0.005 µM'),
  ('COc1cc(-c2nn(-c3ccc(NC(=O)NCCCNC(=O)c4ccccc4)cc3)cc2-c2ccncc2)ccc1Cl', '0.846 µM'),
  ('Cc1nc2ccccc2c(/C=C/c2ccc(Cl)cc2)c1C(=O)/C=C/c1ccc(F)cc1', '1.54 µM'),
  ('COc1ccc(-c2c(C#N)c(N)nc3c2COc2ccc(F)cc2-3)cc1OC', '4.37 µM'),
  ('COc1cc(NC(=O)c2ccc(C(F)(F)F)nc2Nc2cc(Cl)ccc2C)cc(OC)c1OC', '10.4 µM'),
  ('Oc1ccc(-c2cn3ccsc3n2)cc1O', '49.9 µM'),
  ('c1ccc(CSc2nnc3c4c5c(sc4nc(-c4cccnc4)n23)CCCCCC5)cc1', '3.96 µM'),
  ('Oc1c(Cl)cc(Cl)c2ccc(Cn3cc(-c4cc(F)cc(F)c4)nn3)nc12', '11.9 µM'),
  ('Cc1ccc(C)c(COc2cc(NC(=O)c3ccc4c(c3)OCO4)ccc2N(C)S(C)(=O)=O)c1', '0.332 µM');

###

Measured TGI accompanies every entry in the list below.
Test system: SK-OV-3 ovarian
Experiment: NCI tumour cell line growth inhibition, 48 h
OUTCOME_MEASURE: TGI (µM)

INSERT INTO assay_data (compound, comparator, reported_measurement) VALUES
  ('CC1(C)CC(=O)c2c(nc3c(ccc4ccccc43)c2-c2ccc(NC(=O)CCCC(=O)Nc3ccc(-c4c5c(nc6c4ccc4ccccc46)CC(C)(C)CC5=O)cc3)cc2)C1', '>', 100),
  ('Cc1cc(Nc2ncc(F)c(N[C@H]3[C@@H](C(N)=O)[C@@H]4C=C[C@H]3C4)n2)ccc1N1CCN(C)CC1', '=', 2.22),
  ('CN(C)c1ccc(/C=N/N=C2\C(=O)Nc3c(Cl)cc(Cl)cc32)cc1', '>', 100),
  ('Cn1nc(N)nc1N=S(C)(C)=N', '>', 100),
  ('CC(=O)NC1=C(C)C(=O)c2c(nc3n2CCC3OC(=O)c2ccccc2)C1=O (configuration not stated)', '=', 8.51),
  ('O=c1n(-c2ccccc2)c(=O)n2n1C1C=CC2CCCCCC1', '>', 100),
  ('C=C(C)C(CC=C(C)C)Cc1c(O)cc(OC)c2c1OC(c1ccc(O)cc1O)C(O)C2=O (configuration not stated)', '=', 30.5);

###

Tested on: HT29 colon
Experiment: NCI tumour cell line growth inhibition, 48 h; in the data active = GI50 below about 0.43 µM; inactive = the rest
Outcomes: active, inactive

INSERT INTO assay_data (record_smiles, qualitative_label) VALUES
  ('COc1cnc2c(c1)C(=O)c1c-2n(CCCBr)c(=O)c2cc([N+](=O)[O-])ccc12', 'active'),
  ('CCCCCc1c(C)[nH]c(/C=C2\N=C(c3ccc[nH]3)C=C2Oc2ccccc2)c1C', 'active'),
  ('COc1cc(NC(=O)c2ccc(C(F)(F)F)nc2Nc2cc(Cl)ccc2C)cc(OC)c1OC', 'inactive'),
  ('FC(F)(F)CNc1nccc(-c2cnn3ncccc23)n1', 'inactive'),
  ('COc1cc(NC(=O)c2ccc(C(F)(F)F)nc2Nc2ccc(Cl)cc2C)cc(OC)c1OC', 'inactive'),
  ('Cc1nc2ccccc2c(/C=C/c2ccc(Cl)cc2)c1C(=O)/C=C/c1ccc(F)cc1', 'inactive'),
  ('COc1ccc(CN2C(=O)C(Cl)=C(Nc3cccc(O)c3)C2=O)cc1', 'inactive');

###

Test system: OVCAR-5 ovarian
Assay: NCI tumour cell line growth inhibition, 48 h
OUTCOME_MEASURE: TGI

INSERT INTO assay_data (compound, outcome_measure, reported_measurement) VALUES
  ('Nc1ccc2c(c1)Cc1ccccc1-2', 'TGI', '> 100 µM'),
  ('COc1ccccc1-c1cc(=O)c2ccccc2n1C1CC1', 'TGI', '14.2 µM'),
  ('CCOc1ccc2nc3cc(N=Nc4ccc(N)nc4N)ccc3c(N)c2c1', 'TGI', '41.7 µM'),
  ('CC(=O)OCC1OC(N2C(=S)N[C@H]([C@@H](O)[C@H](O)[C@H](O)CO)[C@H]2O)C(OC(C)=O)C(OC(C)=O)C1OC(C)=O (stereo not given in full)', 'TGI', '> 100 µM'),
  ('CC(C)(C)OC(=O)NCC(c1c[nH]c2ccc(Br)cc12)c1c[nH]c2ccc(Br)cc12', 'TGI', '20.2 µM'),
  ('COc1cc(-c2nn(-c3ccc(NC(=O)NCCCNC(=O)c4ccccc4)cc3)cc2-c2ccncc2)ccc1Cl', 'TGI', '> 100 µM'),
  ('Clc1ccc(C2=NOC(C3CCCCC3)C2)cc1 (stereo not given)', 'TGI', '> 100 µM'),
  ('O=C(Nc1ccc(Oc2cccc(Cl)c2)c(Cl)c1)c1cnccn1', 'TGI', '> 50 µM'),
  ('O=C1CCC(c2nc3cc(Cl)ccc3o2)C(=O)N1 (stereo not given)', 'TGI', '> 100 µM'),
  ('CCN(CC)c1ccc2c(cc1=O)[C@@H](NC(C)=O)CCc1cc(OC)c(OC)c(OC)c1-2', 'TGI', '> 100 µM'),
  ('O=C1CCC(C(=O)O)C2=C1CCCC2 (stereo not given)', 'TGI', '> 100 µM'),
  ('CCC(=C/[C@H](C)C/C=C/C(C)=C/[C@@H](C)C(=O)[C@@H](C)[C@H](O)[C@@H](C)CC)/C=C/[C@@H]1OC(=O)C=C[C@@H]1C', 'TGI', '4.74 µM'),
  ('CC(C1=CC=C2[C@@H]3CCC4CC(N(C)C)CC[C@]4(C)C3CC[C@]12C)N(C)C=O (stereo not given in full)', 'TGI', '> 100 µM'),
  ('CCOC(=O)/C=C(/OCC)[C@@H]1C(C(=O)c2ccc(Cl)cc2)[C@H]1/C(=C\C(=O)OCC)OCC (stereo not given in full)', 'TGI', '> 100 µM'),
  ('C/C=C\C(CC(=O)O)CN1CCC2=C(C1)C(S(=O)(=O)C(F)(F)F)c1ccccc12 (stereo not given)', 'TGI', '> 100 µM'),
  ('CCOCCOc1ccc(OCCOCC)cc1', 'TGI', '> 100 µM'),
  ('COc1ccc2[nH]c(C(O)(Cc3cccnc3)Cc3cccnc3)cc2c1', 'TGI', '> 100 µM'),
  ('COc1cc(NC(=O)c2ccc(C(F)(F)F)nc2Nc2ccc(Cl)cc2C)cc(OC)c1OC', 'TGI', '27.7 µM'),
  ('Oc1ccc2c(c1)OCC1c3ccccc3OC21 (stereo not given)', 'TGI', '> 100 µM'),
  ('O=C(O)CC1OCC=C2C[N+]3([O-])CCC45c6ccccc6NC4C1C2CC53 (stereo not given)', 'TGI', '> 100 µM'),
  ('COC(=O)C1=C(c2cc(OC)c(OC)c(OC)c2)OC(c2ccc3c(c2)OCO3)C1 (stereo not given)', 'TGI', '> 100 µM'),
  ('COC1=C(OC)C23CCc4ccc(OC)c(O)c4C2(CCN3)CC1=O (stereo not given)', 'TGI', '> 100 µM'),
  ('Cc1c2nc3ccccc3sc-2cc(=O)c1C', 'TGI', '> 100 µM'),
  ('COC(=O)C(C/C=C(\C)c1ccccc1)C(C)=O (stereo not given)', 'TGI', '> 100 µM'),
  ('O=[N+]([O-])c1ccc2scc3c4ccccc4nc-3c2c1', 'TGI', '3.75 µM'),
  ('CCC[CH2][Sn]([CH2]CCC)([O]C(=O)c1ccc(C)c(N)c1)[O]C(=O)c1ccc(C)c(N)c1', 'TGI', '3.22 µM'),
  ('CCOC(=O)Cn1nc2ccc(Nc3c(C)[n+]([O-])c4cc(F)c(OCC)cc4[n+]3[O-])cc2n1', 'TGI', '> 100 µM'),
  ('C=C(C)C(CC=C(C)C)Cc1c(O)cc(OC)c2c1OC(c1ccc(O)cc1O)C(O)C2=O (stereo not given)', 'TGI', '32.4 µM'),
  ('O=C(NC1C2CC3CC(C2)CC1C3)c1ccncn1 (stereo not given)', 'TGI', '> 100 µM'),
  ('Cc1oc2c(c1C)S(=O)(=O)C(C#N)=CN2', 'TGI', '> 100 µM'),
  ('O=C1OC(CC(=O)c2ccccc2Cl)C(Cl)=C1Cl (stereo not given)', 'TGI', '> 100 µM'),
  ('CC(=O)/C=C\C1CC2C=CC1C2 (stereo not given)', 'TGI', '> 100 µM'),
  ('C=CCOC(C)n1c(C)c(Br)c(=O)[nH]c1=O (stereo not given)', 'TGI', '> 100 µM'),
  ('O=C1[C@H]2ON(c3ccccc3)C(c3ccc(Cl)cc3Cl)[C@H]2C(=O)N1c1ccc(Cc2ccc(N3C(=O)[C@@H]4ON(c5ccccc5)C(c5ccc(Cl)cc5Cl)[C@@H]4C3=O)cc2)cc1 (stereo not given in full)', 'TGI', '> 100 µM'),
  ('Cc1ccc(S(=O)(=O)NCCN(CCNS(=O)(=O)c2ccc(C)cc2)S(=O)(=O)c2ccc(C)cc2)cc1', 'TGI', '> 100 µM'),
  ('CC1(C(=O)O)CCC(C(=O)O)C(C)(C)O1 (stereo not given)', 'TGI', '> 100 µM'),
  ('COC(=O)c1c2c(c3[nH]c4ccccc4c3c1C(=O)OC)C(=O)C1=C(C2=O)C2(Cl)C(Cl)C(Cl)C1(Cl)C2(Cl)Cl (stereo not given)', 'TGI', '> 100 µM'),
  ('Cc1ccc(C)c(COc2cc(NC(=O)c3ccc4c(c3)OCO4)ccc2N(C)S(C)(=O)=O)c1', 'TGI', '> 100 µM'),
  ('Cc1ccc(Nc2nc(C)c(C(=O)CC(=O)C(=O)Nc3c(C)cccc3C(C)(C)C)s2)cc1', 'TGI', '> 100 µM'),
  ('Fc1ccc(-c2nnc3sc(-c4cc(Cl)cc(Cl)c4)nn23)cc1Cl', 'TGI', '> 100 µM');
